Data origin, for the record: patent US4272437A

Reported MIC values are given for each entry in this list.
Test system: Staph. aureus (Pen-Res) A-9606
Assay: MIC, tube dilution, Staphylococcus aureus A9606 (Pen-Res)
Type: cell-based
Conditions: Staphylococcus aureus, Staph. aureus A9606 (Pen-Res); overnight 37° C.; read-out: Minimum Inhibitory Concentration (M.I.C.)
Text: Representative compounds of the present invention were subjected to in vitro antibiotic screening against a variety of microorganisms.
READOUT: MIC (µg/mL)

>  <COMPOUND>
NCCOCC1=C(C(=O)O)N2C(=O)CC2S1 (stereo not drawn)

>  <UNIT_OF_MEASURE>
µg/mL

>  <MEASURED_RESULT>
32

$$$$
>  <COMPOUND>
CC(C)(C)CC1=C(C(=O)O)N2C(=O)CC2S1 (stereo not drawn)

>  <UNIT_OF_MEASURE>
µg/mL

>  <MEASURED_RESULT>
32

$$$$
>  <COMPOUND>
N=C(NCC1=C(C(=O)O)N2C(=O)CC2S1)c1ccccc1 (stereo not drawn)

>  <UNIT_OF_MEASURE>
µg/mL

>  <MEASURED_RESULT>
16

$$$$
>  <COMPOUND>
O=C(O)C1=C(Cc2cccs2)SC2CC(=O)N12 (stereo not drawn)

>  <UNIT_OF_MEASURE>
µg/mL

>  <MEASURED_RESULT>
4

$$$$
>  <COMPOUND>
CC1=C(C(=O)O)N2C(=O)C(C(O)c3ccccc3)C2S1 (stereo not drawn)

>  <UNIT_OF_MEASURE>
µg/mL

>  <MEASURED_RESULT>
4

$$$$
>  <COMPOUND>
N=C(Cc1ccccc1)NCC1=C(C(=O)O)N2C(=O)CC2S1 (stereo not drawn)

>  <UNIT_OF_MEASURE>
µg/mL

>  <MEASURED_RESULT>
32

$$$$
>  <COMPOUND>
CC1=C(C(=O)O)N2C(=O)[C@@H]([C@H](C)O)[C@H]2S1 (relative stereo)

>  <UNIT_OF_MEASURE>
µg/mL

>  <MEASURED_RESULT>
1

$$$$
>  <COMPOUND>
NC1CC1C1=C(C(=O)O)N2C(=O)CC2S1 (stereo not drawn)

>  <UNIT_OF_MEASURE>
µg/mL

>  <MEASURED_RESULT>
4

$$$$
>  <COMPOUND>
CC1=C(C(=O)O)N2C(=O)[C@@H]([C@@H](C)O)[C@H]2S1 (relative stereo)

>  <UNIT_OF_MEASURE>
µg/mL

>  <MEASURED_RESULT>
4

$$$$
